test: Plasma edoxaban pharmacokinetics (LC-MS/MS, noncompartmental analysis)
test_conditions: male, human, in vivo, 30 mg, Cmax,ss of edoxaban, Median (IQR), Group 2, n = 12; 30 mg edoxaban alone, Day 3
measured_metric: Cmax (ng/mL)

> print(dat)
                                   compound  measured.metric  value.reported
1  CN1CCc2nc(C(=O)N[C@@H]3C[C@@H](C(=O)N(C)C)CC[C@@H]3NC(=O)C(=O)Nc3ccc(Cl)cn3)sc2C1 [Edoxaban, edoxaban]             Cmax             170

----------
test: Plasma edoxaban pharmacokinetics (LC-MS/MS, noncompartmental analysis)
test_conditions: male, human, in vivo, 30 mg, tmax,ss of edoxaban, Median (IQR), Group 2, n = 12; 30 mg edoxaban alone, Day 3
measured_metric: Tmax (min)

> print(dat)
                           structure.smiles  value.reported
1  CN1CCc2nc(C(=O)N[C@@H]3C[C@@H](C(=O)N(C)C)CC[C@@H]3NC(=O)C(=O)Nc3ccc(Cl)cn3)sc2C1              30

Cited source for all entries: paper PMC7291522
